# TEST_METHOD_NOTES: reversed-phase LC retention time (C18, 15 min MeOH gradient); higher = more hydrophobic / later elution
# CONDITIONS: ionization mode: ESI-; ion species: [M-H]-
METRIC: reversed-phase LC retention time

{"MOLECULE": "C[C@@H]1C[C@H]2[C@@H]3CCC4=CC(=O)C=C[C@]4(C)[C@@]3(Cl)[C@@H](O)C[C@]2(C)[C@@]1(OC(=O)c1ccco1)C(=O)CCl [Mometasone fuorate]", "ASSAY_VALUE": "15.7 min"}
{"MOLECULE": "O=c1oc2cc(O)ccc2c2oc3cc(O)ccc3c12", "ASSAY_VALUE": "11.7 min"}
{"MOLECULE": "COc1cc(OC)nc(NC(=O)NS(=O)(=O)c2ncccc2C(=O)N(C)C)n1", "ASSAY_VALUE": "8.07 min"}
{"MOLECULE": "O=S(=O)(O)C(F)(F)C(F)(F)C(F)(F)C(F)(F)C(F)(F)C(F)(F)C(F)(F)C(F)(F)F", "ASSAY_VALUE": "15.4 min"}
{"MOLECULE": "CN(C)Cc1cc(C(C)(C)C)c(O)c(C(C)(C)C)c1", "ASSAY_VALUE": "17.1 min"}

Hi, could you look up reversed-phase LC retention time for each item in my list?
1. CC(=O)Nc1ccc(S(=O)(=O)Nc2cc(C)on2)cc1
2. COC(=O)Nc1nc2ccc(C(=O)c3ccccc3)cc2[nH]1
3. Oc1ccc(C(c2ccc(O)cc2)(C(F)(F)F)C(F)(F)F)cc1
4. O=C(O)Cc1ccccc1Nc1c(Cl)cccc1Cl
5. N#Cc1nn(-c2c(Cl)cc(C(F)(F)F)cc2Cl)c(N)c1S(=O)(=O)C(F)(F)F
6. CC(=O)CC(c1ccccc1)c1c(O)c2ccccc2oc1=O (stereo not drawn)

Reply |
1. 6.92 min
2. 13 min
3. 14.8 min
4. 13.3 min
5. 16.1 min
6. 10.1 min

Hi, could you look up reversed-phase LC retention time for each item in my list?
1. CCCCOC(=O)c1ccc(O)cc1 [Butyl 4-hydroxybenzoate]
2. N[C@@H](Cc1cc(I)c(Oc2cc(I)c(O)c(I)c2)c(I)c1)C(=O)O
3. Oc1ccc(C(c2ccccc2)(c2ccccc2)c2ccc(O)cc2)cc1
4. CCC(=O)OCC(=O)[C@@]1(OC(=O)CC)[C@@H](C)C[C@H]2[C@@H]3CCC4=CC(=O)C=C[C@]4(C)[C@@]3(Cl)[C@@H](O)C[C@@]21C [Beclometasone dipropionate]
5. O=C(CC(C(=O)OC1CCCCC1)S(=O)(=O)O)OC1CCCCC1 (stereo not drawn) [Dicyclohexyl sulfosuccinate]
6. O=C(O)C(F)(F)C(F)(F)C(F)(F)C(F)(F)C(F)(F)C(F)(F)C(F)(F)C(F)(F)C(F)(F)F
7. CC(C)c1ccc2c(c1)CC[C@H]1[C@](C)(C(=O)O)CCC[C@]21C [Dehydroabietic acid]
8. Cc1cc(O)ccc1Cl

Reply |
["14.2 min", "13.4 min", "16 min", "16.5 min", "14.2 min", "16 min", "16.5 min", "11.6 min"]

----------
# TEST_METHOD_NOTES: reversed-phase LC retention time (C18, 15 min MeOH gradient); higher = more hydrophobic / later elution
# CONDITIONS: ionization mode: ESI+; ion species: [M]+
METRIC: reversed-phase LC retention time (min)
One number for each entry, in min.

Check out these entries, answers already filled in.
{"MOLECULE": "C[N+](C)(C)CC(O)CCl (stereo unspecified) [(3-Chloro-2-hydroxypropyl)trimethylammonium]", "UNITS_SYMBOL": "min", "reversed-phase LC retention time": 1.03}
{"MOLECULE": "CCCC[N+]1(C)[C@H]2CC(OC(=O)C(CO)c3ccccc3)C[C@H]1[C@H]1O[C@H]12 (stereo partly specified)", "UNITS_SYMBOL": "min", "reversed-phase LC retention time": 9.85}
{"MOLECULE": "CC[N+](CC)(CC)CC", "UNITS_SYMBOL": "min", "reversed-phase LC retention time": 1.03}
{"MOLECULE": "CC(C)(C)CC(C)(C)c1ccc(OCCOCC[N+](C)(C)Cc2ccccc2)cc1", "UNITS_SYMBOL": "min", "reversed-phase LC retention time": 16.3}
{"MOLECULE": "C[P+](c1ccccc1)(c1ccccc1)c1ccccc1", "UNITS_SYMBOL": "min", "reversed-phase LC retention time": 10.1}

# next molecule below
Ask | Fill in reversed-phase LC retention time for record CC[n+]1ccn(C)c1
Reply | 0.99
